TEST DETAILS: chemical genetic growth profiling, strain panel (AID 1159580);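 note: tested at 20 µM; growth read once vehicle control cultures reached saturation at 30 °C; 1 = growth at the plate median or of vehicle wells; lower values mean less growth of the strain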
CONDITION PARAMETERS: S. cerevisiae deletion strains, growth OD, locus YHR079C, strain IRE1 (second series), hits give low values
In all, about 5,500 compounds went through this assay and about 2,000 (36%) were called active. Roughly 18% stayed inconclusive and do not appear here. The list shows a part of the results.
ASSAY READOUT: normalized growth
Answers are plain numbers.

MOLECULE	ASSAY READOUT	OBSERVED RESULT
CCCCCCCCCCCCCC(=O)OC1C(C)C2(O)C(C=C(CO)CC3(O)C(=O)C(C)=CC32)C2C(C)(C)C12OC(C)=O (centres undefined)	normalized growth	0.992
CC(=O)OCC(=O)[C@@]1(O)CCC2C3CCC4=CC(=O)C=CC4(C)C3[C@@H](O)C[C@@]21C (some centres undefined)	normalized growth	1.02
CN[C@@H]1C(OC2[C@H](O[C@H]3[C@H](O)[C@@H](O)[C@H](N=C(N)N)[C@@H](O)[C@@H]3N=C(N)N)OC(C)[C@]2(O)CO)OC(CO)C(O)C1O (some centres undefined)	normalized growth	0.98

Continue with the molecule presented below.
Requested field: normalized growth. Item: C=C[C@@]1(C)CC(=O)[C@@]2(O)[C@](C)(O1)[C@@H](OC(C)=O)[C@@H](O)C1C(C)(C)CC[C@H](O)[C@@]12C (some centres undefined)
0.994
